test: Selectivity for TR over human GR
Classify: rule met when Ratio IC50 is strictly less than 40; rule not met when Ratio IC50 is not.

{"columns": ["smiles.string", "assigned.category"],
 "data": [
  ["CN(C)CCC(=O)c1ccc(Cl)c(Cl)c1", "rule met"],
  ["CC(C)(C)c1cc(CNCCO)cc(C(C)(C)C)c1O", "rule met"],
  ["Cc1cccc(NCCC(=O)c2cccc([N+](=O)[O-])c2)c1C", "rule not met"],
  ["O=C(CCNc1ccccc1)c1cccc([N+](=O)[O-])c1", "rule met"],
  ["CN(C)CCC(=O)c1cccc([N+](=O)[O-])c1", "rule not met"],
  ["CC(C)c1cc(CN(C)C)cc(C(C)C)c1O", "rule met"]
]}

Report whether reported Ratio IC50 is lower than 40 (strictly) for CN(C)CCC(=O)c1ccc(S(C)(=O)=O)cc1 rule met

Report whether reported Ratio IC50 is lower than 40 (strictly) for CS(=O)(=O)c1ccc(C(=O)CCN2CCCCC2)cc1 rule met
